Molecular target: human TLR8 (Homo sapiens, UniProt Q9NR97)
Construct: expressed in transfected cells; host or cells: HEK 293
Sequence (Q9NR97 27-1041): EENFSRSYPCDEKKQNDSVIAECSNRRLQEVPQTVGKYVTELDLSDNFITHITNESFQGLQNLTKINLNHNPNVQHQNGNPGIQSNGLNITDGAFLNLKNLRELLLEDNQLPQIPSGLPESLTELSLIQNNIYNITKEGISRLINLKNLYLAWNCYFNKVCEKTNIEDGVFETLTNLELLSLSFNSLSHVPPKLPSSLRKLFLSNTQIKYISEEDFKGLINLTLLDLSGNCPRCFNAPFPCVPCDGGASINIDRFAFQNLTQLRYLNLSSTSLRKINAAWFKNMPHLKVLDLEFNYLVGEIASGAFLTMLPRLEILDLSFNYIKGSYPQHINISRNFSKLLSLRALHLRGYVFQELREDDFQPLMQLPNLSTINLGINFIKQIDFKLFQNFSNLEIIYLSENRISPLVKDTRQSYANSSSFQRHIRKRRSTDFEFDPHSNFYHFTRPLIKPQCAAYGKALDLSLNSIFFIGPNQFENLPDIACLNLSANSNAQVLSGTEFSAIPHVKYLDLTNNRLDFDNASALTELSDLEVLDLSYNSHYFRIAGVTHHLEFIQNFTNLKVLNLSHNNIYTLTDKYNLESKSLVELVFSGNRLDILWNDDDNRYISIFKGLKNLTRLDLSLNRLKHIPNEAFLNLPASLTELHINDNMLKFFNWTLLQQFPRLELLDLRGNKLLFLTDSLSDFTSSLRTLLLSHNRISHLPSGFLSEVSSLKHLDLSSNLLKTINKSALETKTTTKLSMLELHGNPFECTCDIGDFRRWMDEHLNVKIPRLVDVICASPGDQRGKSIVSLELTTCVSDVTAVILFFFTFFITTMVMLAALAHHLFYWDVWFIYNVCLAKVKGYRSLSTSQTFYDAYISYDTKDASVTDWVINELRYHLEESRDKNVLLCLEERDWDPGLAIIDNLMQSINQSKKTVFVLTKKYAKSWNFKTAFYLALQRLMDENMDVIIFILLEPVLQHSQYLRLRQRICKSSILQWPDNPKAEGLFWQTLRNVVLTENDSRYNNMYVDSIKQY
Test: Reporter gene assay, HEK293-TLR8 (NF-kB-driven luciferase)
Format: cell-based
Conditions: HEK293-TLR8; read-out: EC50 in HEK293-TLR8 assay
Listed molecules paired with reported pEC50
pEC50 is a log-scale quantity: -log10 of the concentration expressed in molar.

Reference set (3 entries):
>  <MOLECULE>
Nc1nc2cc(F)ccc2c2cccnc12

>  <pEC50>
4.43

$$$$
>  <MOLECULE>
Nc1nc2ccccc2c2cccnc12 [Example 1, Benzo[f][1,7]naphthyridin-5-amine]

>  <pEC50>
4.85

$$$$
>  <MOLECULE>
Cc1ccc2c(c1)nc(N)c1ncccc12

>  <pEC50>
5.05

$$$$

// query # return recorded pEC50 for entry CCc1cnc2c(N)nc3ccccc3c2c1 [Example 30, 2-ethylbenzo[f][1,7]naphthyridin-5-amine]
// result 4.89

* * *

Biological target: human TLR8 (Homo sapiens)
Construct: expressed in transfected cells; host or cells: HEK 293
Sequence (Q9NR97 27-1041): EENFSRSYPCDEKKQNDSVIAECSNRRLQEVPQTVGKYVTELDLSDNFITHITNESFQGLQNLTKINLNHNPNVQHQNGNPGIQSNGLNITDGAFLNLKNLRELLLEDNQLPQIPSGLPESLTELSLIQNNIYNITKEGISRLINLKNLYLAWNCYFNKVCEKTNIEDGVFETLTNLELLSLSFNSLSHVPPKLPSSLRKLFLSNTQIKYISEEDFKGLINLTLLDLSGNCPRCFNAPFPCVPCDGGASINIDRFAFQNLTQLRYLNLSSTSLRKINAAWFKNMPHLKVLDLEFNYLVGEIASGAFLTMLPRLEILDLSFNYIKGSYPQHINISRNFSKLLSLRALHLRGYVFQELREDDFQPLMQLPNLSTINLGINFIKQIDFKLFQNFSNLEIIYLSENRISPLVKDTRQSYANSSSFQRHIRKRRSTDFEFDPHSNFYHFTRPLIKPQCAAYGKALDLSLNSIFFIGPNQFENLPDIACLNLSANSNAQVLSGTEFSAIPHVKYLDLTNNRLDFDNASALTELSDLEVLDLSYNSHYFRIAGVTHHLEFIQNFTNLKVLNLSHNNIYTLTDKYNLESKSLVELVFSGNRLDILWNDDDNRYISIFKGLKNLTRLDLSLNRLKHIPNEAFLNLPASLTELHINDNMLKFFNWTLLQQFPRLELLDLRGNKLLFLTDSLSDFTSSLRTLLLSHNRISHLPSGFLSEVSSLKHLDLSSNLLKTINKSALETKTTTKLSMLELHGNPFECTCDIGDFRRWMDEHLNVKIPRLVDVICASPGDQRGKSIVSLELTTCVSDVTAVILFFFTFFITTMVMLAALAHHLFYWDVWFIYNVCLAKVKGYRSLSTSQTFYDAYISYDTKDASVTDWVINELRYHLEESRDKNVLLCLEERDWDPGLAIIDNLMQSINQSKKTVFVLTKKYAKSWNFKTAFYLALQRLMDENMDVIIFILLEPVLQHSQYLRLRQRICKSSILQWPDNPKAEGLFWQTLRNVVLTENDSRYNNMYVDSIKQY
Test: Reporter gene assay, HEK293-TLR8 (NF-kB-driven luciferase)
Type: cell-based
Settings: TLR-8 stimulation; read-out: Human TLR-8 EC50
RECORDED_METRIC: EC50 (µM)
All answers are understood in µM, so give the number only.

The cases that follow already have their EC50 on record.
>  <COMPOUND>
Cc1ccc2c(c1)nc(N)c1ncc(CCc3ccc(C(C)NCCN(C)C)cc3)cc12 (stereo not shown)

>  <READING_UNIT>
µM

>  <EC50>
11

$$$$
>  <COMPOUND>
Cc1ccc2c(c1)nc(N)c1ncc(CCc3ccc(C(C)N4CCC(C(=O)O)C4)cc3)cc12 (stereo not shown)

>  <READING_UNIT>
µM

>  <EC50>
24

$$$$
>  <COMPOUND>
Cc1ccc2c(c1)nc(N)c1ncc(CCc3ccc(C(C)NCCC(=O)O)cc3)cc12 (stereo not shown)

>  <READING_UNIT>
µM

>  <EC50>
82

$$$$
>  <COMPOUND>
Cc1ccc2c(c1)nc(N)c1ncc(CCc3ccc(C(C)N4CCC(O)C4)cc3)cc12 (stereo not shown)

>  <READING_UNIT>
µM

>  <EC50>
5.3

$$$$
>  <COMPOUND>
Cc1ccc2c(c1)nc(N)c1ncc(CCc3ccc(C(C)NC(C)CN(C)C)cc3)cc12 (stereo not shown)

>  <READING_UNIT>
µM

>  <EC50>
6.2

$$$$
>  <COMPOUND>
Cc1ccc2c(c1)nc(N)c1ncc(CCc3ccc(CN4CCCC4)cc3)cc12

>  <READING_UNIT>
µM

>  <EC50>
15

$$$$

// query Dear colleague, please send me the reported EC50 for "Cc1ccc2c(c1)nc(N)c1ncc(CCc3ccc(C(C)(C)N)cc3)cc12" when you can.
// result 2.6

// query Please look at this compound and report its EC50: Cc1ccc2c(c1)nc(N)c1ncc(CCc3ccc(C(C)NCCc4ccncc4)cc3)cc12 (stereo not shown)
// result 4.3

// query Return the recorded EC50 value; entry: CCN(CC)CCNC(C)c1ccc(CCc2cnc3c(N)nc4cc(C)ccc4c3c2)cc1 (stereo not shown)
// result 6

Just for reference, patent US8466167B2 is where these values come from.
